Would you kindly list IC50 for each of these molecules?
# EXPERIMENTAL_SYSTEM: α4β1 (Homo sapiens, UniProt P05556+P13612)
# Construct: Jurkat cells expressing α4β1; Marcinkiewicz (Temple University, Philadelphia, Pa.); host or cells: Jurkat
# Sequence (P13612 34-1032): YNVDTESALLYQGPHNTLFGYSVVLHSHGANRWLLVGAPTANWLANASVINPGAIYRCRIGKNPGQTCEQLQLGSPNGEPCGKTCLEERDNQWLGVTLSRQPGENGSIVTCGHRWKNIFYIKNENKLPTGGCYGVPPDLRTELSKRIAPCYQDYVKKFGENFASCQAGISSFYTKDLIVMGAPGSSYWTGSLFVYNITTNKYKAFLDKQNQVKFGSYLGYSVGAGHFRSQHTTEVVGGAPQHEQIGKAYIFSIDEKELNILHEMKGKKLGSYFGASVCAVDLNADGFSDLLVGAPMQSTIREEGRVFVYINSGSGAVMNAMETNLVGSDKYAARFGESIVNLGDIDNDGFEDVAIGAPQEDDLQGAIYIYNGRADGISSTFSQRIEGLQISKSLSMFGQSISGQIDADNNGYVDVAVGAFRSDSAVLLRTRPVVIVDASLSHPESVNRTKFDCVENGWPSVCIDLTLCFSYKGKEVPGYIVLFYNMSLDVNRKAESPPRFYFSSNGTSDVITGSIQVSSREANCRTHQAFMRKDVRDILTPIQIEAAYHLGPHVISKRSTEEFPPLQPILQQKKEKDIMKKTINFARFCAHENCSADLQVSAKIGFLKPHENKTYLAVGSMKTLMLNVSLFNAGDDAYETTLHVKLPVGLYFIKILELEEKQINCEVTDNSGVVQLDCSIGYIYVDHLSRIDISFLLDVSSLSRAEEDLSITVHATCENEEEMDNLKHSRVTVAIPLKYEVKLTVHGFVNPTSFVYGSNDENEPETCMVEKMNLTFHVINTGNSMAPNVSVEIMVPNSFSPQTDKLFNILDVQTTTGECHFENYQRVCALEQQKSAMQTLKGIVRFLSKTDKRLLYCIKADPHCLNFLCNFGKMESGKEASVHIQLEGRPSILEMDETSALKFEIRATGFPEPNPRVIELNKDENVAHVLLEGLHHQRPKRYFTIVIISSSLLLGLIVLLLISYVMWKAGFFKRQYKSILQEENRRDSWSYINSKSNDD
# Sequence (P05556 21-798): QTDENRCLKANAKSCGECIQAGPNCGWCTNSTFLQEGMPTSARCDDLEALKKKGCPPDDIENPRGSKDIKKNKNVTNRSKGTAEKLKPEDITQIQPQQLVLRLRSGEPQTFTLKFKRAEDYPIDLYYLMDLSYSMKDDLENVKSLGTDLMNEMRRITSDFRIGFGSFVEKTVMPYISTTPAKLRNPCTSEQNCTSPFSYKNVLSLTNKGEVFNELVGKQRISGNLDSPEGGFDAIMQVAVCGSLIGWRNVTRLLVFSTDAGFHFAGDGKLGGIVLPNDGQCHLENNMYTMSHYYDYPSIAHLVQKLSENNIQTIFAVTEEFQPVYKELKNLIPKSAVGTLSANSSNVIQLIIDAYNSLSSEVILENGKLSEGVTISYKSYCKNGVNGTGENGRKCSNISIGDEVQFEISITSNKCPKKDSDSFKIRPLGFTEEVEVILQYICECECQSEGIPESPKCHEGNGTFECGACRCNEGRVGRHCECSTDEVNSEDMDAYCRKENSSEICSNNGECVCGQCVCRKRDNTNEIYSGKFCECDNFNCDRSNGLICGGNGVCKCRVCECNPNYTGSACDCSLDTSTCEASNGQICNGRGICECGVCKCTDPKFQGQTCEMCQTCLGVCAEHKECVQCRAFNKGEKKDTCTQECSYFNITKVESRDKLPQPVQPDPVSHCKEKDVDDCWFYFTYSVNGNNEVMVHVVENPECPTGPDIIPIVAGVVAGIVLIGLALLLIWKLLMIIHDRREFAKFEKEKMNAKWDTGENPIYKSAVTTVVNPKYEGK
# EXPERIMENTAL_PROTOCOL: Cell adhesion assay to assess specificity: Jurkat cells on VCAM
# Type: cell-based

Worked cases, answers included:
molecule="O=C(NCc1ccccc1)NC[C@H](NC(=O)[C@@H]1CCCN1S(=O)(=O)c1ccc2ccccc2c1)C(=O)O [Compound 29]" quantity_measured=IC50 observed_result="4330 nM"
molecule="Nc1ccc(CNC(=O)NC[C@H](NC(=O)[C@@H]2CCCN2S(=O)(=O)c2ccccc2)C(=O)O)cc1 [Compound 30]" quantity_measured=IC50 observed_result="1970 nM"
molecule="O=C(NCc1ccccc1)NC[C@H](NC(=O)[C@@H]1CCCN1S(=O)(=O)c1cc(Cl)cc(Cl)c1)C(=O)O [Compound 48]" quantity_measured=IC50 observed_result="637 nM"

// switching to the query molecule
Supply reported IC50 belonging to this molecule: Cc1cc(C)cc(S(=O)(=O)N2CCC[C@H]2C(=O)N[C@@H](CNC(=O)NCc2ccccc2)C(=O)O)c1 [Compound 31]
740 nM

###

# EXPERIMENTAL_SYSTEM: α2β1 integrin (Homo sapiens, UniProt P05556+P17301)
# Construct: endogenous in cells; host or cells: gel-filtered human platelets of a single donor
# Sequence (P17301 30-1181): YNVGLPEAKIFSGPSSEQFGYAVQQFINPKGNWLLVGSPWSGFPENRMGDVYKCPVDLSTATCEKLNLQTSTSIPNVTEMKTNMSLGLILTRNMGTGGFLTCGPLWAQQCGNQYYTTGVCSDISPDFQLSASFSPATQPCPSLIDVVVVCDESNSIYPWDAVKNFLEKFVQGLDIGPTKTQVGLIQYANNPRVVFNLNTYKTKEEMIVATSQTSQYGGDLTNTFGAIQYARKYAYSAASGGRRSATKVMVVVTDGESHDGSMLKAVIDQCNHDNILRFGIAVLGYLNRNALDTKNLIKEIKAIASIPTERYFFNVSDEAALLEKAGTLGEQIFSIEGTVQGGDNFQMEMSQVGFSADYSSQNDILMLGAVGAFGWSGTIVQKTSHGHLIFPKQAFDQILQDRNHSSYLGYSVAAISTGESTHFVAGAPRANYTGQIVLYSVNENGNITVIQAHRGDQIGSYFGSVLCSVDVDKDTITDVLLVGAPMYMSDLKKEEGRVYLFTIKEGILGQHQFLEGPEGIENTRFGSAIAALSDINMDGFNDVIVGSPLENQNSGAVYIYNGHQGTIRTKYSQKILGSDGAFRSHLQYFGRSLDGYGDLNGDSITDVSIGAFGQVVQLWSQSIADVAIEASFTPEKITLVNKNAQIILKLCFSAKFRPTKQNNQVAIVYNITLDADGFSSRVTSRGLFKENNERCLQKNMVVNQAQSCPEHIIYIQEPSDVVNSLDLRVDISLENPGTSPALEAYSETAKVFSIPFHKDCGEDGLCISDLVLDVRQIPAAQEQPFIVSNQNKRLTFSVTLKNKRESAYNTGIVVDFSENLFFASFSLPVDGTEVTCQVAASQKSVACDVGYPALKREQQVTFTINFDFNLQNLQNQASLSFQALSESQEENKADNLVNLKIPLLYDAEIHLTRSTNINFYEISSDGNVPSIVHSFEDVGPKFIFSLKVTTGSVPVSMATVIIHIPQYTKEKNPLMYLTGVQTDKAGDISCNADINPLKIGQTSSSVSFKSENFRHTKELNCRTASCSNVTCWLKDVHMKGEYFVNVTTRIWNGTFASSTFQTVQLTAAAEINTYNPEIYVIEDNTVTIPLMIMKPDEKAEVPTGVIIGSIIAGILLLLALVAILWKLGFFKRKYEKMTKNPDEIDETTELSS
# Sequence (P05556 21-798): as the sequence (P05556 21-798) above
# EXPERIMENTAL_PROTOCOL: Platelet adhesion assay (human platelet adhesion to type I collagen)
# Format: cell-based
# MEASUREMENT_CONDITIONS: human platelet adhesion to type I (soluble, monomeric) collagen, static conditions; single donor; read-out: IC50
*1 amine or outer side, *2 acyl side, *3 side chain or, on linkers, in order; H or OH if unused. Where a SMILES comes first, the peptide text is derived from it. Side-chain parts run from the residue outwards. [ ]: non-standard residue; d: D form. The star is where a group is joined. Dap = NC[C@H](N)C(=O)O; CO = O=C([*:1])[*:2]; NHBn = c1ccc(CN*)cc1; Bz = O=C(c1ccccc1)*
Could you please report measured pIC50 for the items listed next?
Answers are plain numbers, as −log10 of the molar value.

compound="O=C(Cc1ccccc1)Nc1ccc(S(=O)(=O)N2CCC[C@H]2C(=O)N[C@@H](CNC(=O)NCc2ccccc2)C(=O)O)cc1 [Compound 32]" quantity_measured=pIC50 observed_result=6.63
compound="CCCNC(=O)NC[C@H](NC(=O)[C@@H]1CCCN1S(=O)(=O)c1ccc([N+](=O)[O-])cc1)C(=O)O [Compound 16]" quantity_measured=pIC50 observed_result=5.44

Provide one value: measured pIC50 of O=C(NCc1ccccc1)NC[C@H](NC(=O)[C@@H]1CCCN1C(=O)c1ccccc1)C(=O)O [Compound 26] (Bz-Pro-[Dap]([CO-NHBn])-OH)
3.00

###

# EXPERIMENTAL_SYSTEM: α2β1 (Homo sapiens, UniProt P05556+P17301)
# Construct: Marcinkiewicz (Temple University, Philadelphia, Pa.); host or cells: K562
# Sequence (P17301 30-1181): as the sequence (P17301 30-1181) above
# Sequence (P05556 21-798): as the sequence (P05556 21-798) above
# EXPERIMENTAL_PROTOCOL: Cell adhesion assay to assess specificity: α2-transfected K562 cells on collagen I
# Format: cell-based
QUANTITY_MEASURED: IC50 (nM)
Numbers only, in nM.

Consider the following illustrative entries.
structure_notation=Nc1ccc(CNC(=O)NC[C@H](NC(=O)[C@@H]2CCCN2S(=O)(=O)c2ccccc2)C(=O)O)cc1 observed_result=102
structure_notation=O=C(NCc1ccccc1)NC[C@H](NC(=O)[C@@H]1CCCN1S(=O)(=O)c1ccc2ccccc2c1)C(=O)O observed_result=177

// for each compound in input: emit IC50
1. Cc1cc(C)cc(S(=O)(=O)N2CCC[C@H]2C(=O)N[C@@H](CNC(=O)NCc2ccccc2)C(=O)O)c1
2. O=C(NCc1ccccc1)NC[C@H](NC(=O)[C@@H]1CCCN1S(=O)(=O)c1cc(Cl)cc(Cl)c1)C(=O)O

[89, 83]

###

# EXPERIMENTAL_SYSTEM: α2β1 integrin (Homo sapiens, UniProt P05556+P17301)
# Construct: endogenous in cells; host or cells: gel-filtered human platelets of a single donor
# EXPERIMENTAL_PROTOCOL: Platelet adhesion assay (human platelet adhesion to type I collagen)
# Type: cell-based
# MEASUREMENT_CONDITIONS: human platelet adhesion to type I (soluble, monomeric) collagen, static conditions; single donor; read-out: IC50
QUANTITY_MEASURED: IC50 (µM)
Give bare numbers, in µM.

# batch size: 4; output IC50 per entry
1. O=C(NCc1ccccc1)NC[C@H](NC(=O)[C@@H]1CCCN1S(=O)(=O)c1cc(Cl)cc(Cl)c1)C(=O)O
2. O=C(CCc1ccccc1)NC[C@H](NC(=O)[C@@H]1CCCN1S(=O)(=O)c1ccccc1)C(=O)O
3. O=C(NC[C@H](NC(=O)[C@@H]1CCCN1S(=O)(=O)c1ccc([N+](=O)[O-])cc1)C(=O)O)OCc1ccccc1
4. O=C(NCc1ccccc1)NC[C@H](NC(=O)[C@@H]1C=CCN1S(=O)(=O)c1ccccc1)C(=O)O (stereo in doubt)

1. 0.017
2. 0.367
3. 2.3
4. 0.143

###

# EXPERIMENTAL_SYSTEM: α2β1 integrin (Homo sapiens, UniProt P05556+P17301)
# Construct: endogenous in cells; host or cells: gel-filtered human platelets of a single donor
# EXPERIMENTAL_PROTOCOL: Platelet adhesion assay (human platelet adhesion to type I collagen)
# Format: cell-based
# MEASUREMENT_CONDITIONS: human platelet adhesion to type I (soluble, monomeric) collagen, static conditions; single donor; read-out: IC50
*1 amine or outer side, *2 acyl side, *3 side chain or, on linkers, in order; H or OH if unused. Where a SMILES comes first, the peptide text is derived from it. Side-chain parts run from the residue outwards. [ ]: non-standard residue; d: D form. The star is where a group is joined. Cbz = O=C(OCc1ccccc1)*; Dap = NC[C@H](N)C(=O)O; CO = O=C([*:1])[*:2]; NHBn = c1ccc(CN*)cc1
QUANTITY_MEASURED: pIC50
Numbers only, as −log10 of the molar value.

compound="CC(C)(C)OC(=O)Nc1ccc(CNC(=O)NC[C@H](NC(=O)[C@@H]2CCCN2S(=O)(=O)c2ccc([N+](=O)[O-])cc2)C(=O)O)cc1 [Compound 18]" experimental_system="α2β1 integrin (Homo sapiens, UniProt P05556+P17301)" quantity_measured=pIC50 observed_result=5.75
compound="O=C(NCc1ccccc1Cl)NC[C@H](NC(=O)[C@@H]1CCCN1S(=O)(=O)c1ccc([N+](=O)[O-])cc1)C(=O)O [Compound 7]" experimental_system="α2β1 integrin (Homo sapiens, UniProt P05556+P17301)" quantity_measured=pIC50 observed_result=6.01
compound="O=C(NCc1ccccc1)NC[C@H](NC(=O)C1CCCCN1S(=O)(=O)c1ccccc1)C(=O)O (stereo partly shown) [Compound 51]" experimental_system="α2β1 integrin (Homo sapiens, UniProt P05556+P17301)" quantity_measured=pIC50 observed_result=7.25
compound="CC(C)(C)NC(=O)NC[C@H](NC(=O)[C@@H]1CCCN1S(=O)(=O)c1ccc([N+](=O)[O-])cc1)C(=O)O [Compound 17]" experimental_system="α2β1 integrin (Homo sapiens, UniProt P05556+P17301)" quantity_measured=pIC50 observed_result=5.77
compound="COc1cccc(CNC(=O)NC[C@H](NC(=O)[C@@H]2CCCN2S(=O)(=O)c2ccccc2)C(=O)O)c1 [Compound 41]" experimental_system="α2β1 integrin (Homo sapiens, UniProt P05556+P17301)" quantity_measured=pIC50 observed_result=6.80
compound="COc1ccc(CNC(=O)NC[C@H](NC(=O)[C@@H]2CCCN2S(=O)(=O)c2ccc([N+](=O)[O-])cc2)C(=O)O)cc1 [Compound 12]" experimental_system="α2β1 integrin (Homo sapiens, UniProt P05556+P17301)" quantity_measured=pIC50 observed_result=6.09

I'm hoping you can list pIC50 for every compound here, please.
1. O=C(NCc1ccccc1)NC[C@H](NC(=O)[C@@H]1C[C@@H](O)CN1S(=O)(=O)c1ccccc1)C(=O)O [Compound 47]
2. O=C(CCc1ccccc1)NC[C@H](NC(=O)[C@@H]1CCCN1S(=O)(=O)c1ccc([N+](=O)[O-])cc1)C(=O)O [Compound 4]
3. COc1cccc(CNC(=O)NC[C@H](NC(=O)[C@@H]2CCCN2S(=O)(=O)c2ccc([N+](=O)[O-])cc2)C(=O)O)c1 [Compound 14]

1. 7.47
2. 5.32
3. 6.10

Can you give me pIC50 for all of these, one by one?
1. O=C(NCc1ccccc1)NC[C@H](NC(=O)[C@@H]1CCCN1C(=O)OCc1ccccc1)C(=O)O [Compound 23] (Cbz-Pro-[Dap]([CO-NHBn])-OH)
2. O=C(NCc1ccccc1)NC[C@H](NC(=O)[C@@H]1CCCN1S(=O)(=O)c1ccc2ccccc2c1)C(=O)O [Compound 34]
3. O=C(NC[C@H](NC(=O)[C@@H]1CCCN1S(=O)(=O)c1ccccc1)C(=O)O)OCc1ccccc1 [Compound 39]
4. O=C(NCc1ccccc1)NC[C@H](NC(=O)[C@@H]1CCCN1S(=O)(=O)c1ccc2ccccc2c1)C(=O)O [Compound 29]

[4.55, 7.30, 6.73, 6.05]
